FYI, the data here is from patent US11992535B2.

target: aggregated MBP-HTT(1-89)Q46-His(6×) (Exonl-Q46) protein (Q46 protein aggregates) (Homo sapiens (Human), UniProt P42858, INS38QQQQQQQQQQQQQQQQQQQQQQQQQ); experiment: Q46 Radioligand Binding Assay; details: same radioligand displacement on Exonl-Q46 aggregates; read-out: Q46_RBA EC50_
Sequence (P42858 other isoform, or with tags, fused parts or gaps, stated change not applied): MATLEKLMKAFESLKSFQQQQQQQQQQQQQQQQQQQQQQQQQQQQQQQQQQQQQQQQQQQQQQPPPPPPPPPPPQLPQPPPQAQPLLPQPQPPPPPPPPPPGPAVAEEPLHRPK
EC50 for assorted compounds

>>> print(df.to_string())
                         compound_structure    result
0  COc1ccc(C(=O)N2CCc3ccc(OCc4ccc(OC)cn4)cc3C2)cc1  < 100 nM

## Input // returns reported EC50 for input COc1ccc(COc2cnc3c(c2)CN(C(=O)c2ccc(OCCF)nc2)CC3)nc1
## Output < 100 nM

## Input Further, for COc1ccc(COc2ccc3c(n2)CN(C(=O)c2ccc(OC)nc2)CC3)nc1 ?
## Output < 100 nM

## Input Further, for COc1ccc(COc2ccc3c(c2)CN(c2ccn(C)c(=O)c2)CC3)nc1 ?
## Output 100 to 500 nM

## Input Further, for COc1ccc(C(=O)N2CCc3ccc(OCc4ccc(OCF)cn4)cc3C2)cn1 ?
## Output < 100 nM

## Input Further, for COc1ccc(COc2ccc3c(c2)CN(S(=O)(=O)c2ccc(OC)nc2)CC3)nc1 ?
## Output 100 to 500 nM

## Input Further, for COc1ccc(COC(=O)N2CCc3ccccc3C2)cn1 ?
## Output > 500 nM

## Input Further, for COc1ccc(COc2ccc3c(c2)CN(c2ncc(OC)cn2)CC3)nc1 ?
## Output < 100 nM

====

target: aggregated MBP-HTT(1-89)Q46-His(6×) (Exonl-Q46) protein (Q46 protein aggregates) (Homo sapiens (Human), UniProt P42858, INS38QQQQQQQQQQQQQQQQQQQQQQQQQ); test: Q46 Radioligand Binding Assay; settings: same radioligand displacement on Exonl-Q46 aggregates; read-out: Q46_RBA EC50_
EC50 for assorted molecules

## Input // returns reported EC50 for input C=CCOc1ccc(C(=O)N2CCc3ncc(OCc4ccc(OC)cn4)cc3C2)cn1
## Output < 100 nM

## Input Further, for COc1ccc(COc2ccc3c(c2)CN(C(=O)c2ccc(C)nc2)CC3)nc1 ?
## Output < 100 nM

## Input Further, for COc1ccc(C(=O)Nc2ccc3c(c2)CN(c2ccc(OC)nc2)CC3)nc1 ?
## Output < 100 nM

## Input Further, for COc1ccc(COc2ccc3c(c2)CN(c2ccc(OC)nc2)C(=O)C3)nc1 ?
## Output 100 to 500 nM

====

molecular target: aggregated MBP-HTT(1-89)Q46-His(6×) (Exonl-Q46) protein (Q46 protein aggregates) (Homo sapiens (Human), UniProt P42858, INS38QQQQQQQQQQQQQQQQQQQQQQQQQ); experiment: Q46 Radioligand Binding Assay; details: displacement of 0.3 nM [3H3-methyl]-5-((5-methoxypyridin-2-yl)methoxy)-2-(pyrazin-2-yl)benzo[d]oxazole from 1 μM Exonl-Q46 aggregates; method calls the values IC50; read-out: Q46_RBA EC50_
Measurement Type: log10 of EC50 (log10 of the value in nM)
// stored as log10 of EC50 expressed in nM

Examples with answers:
>>> print(df.to_string())
                         compound_structure  quantitative_readout
0  Cn1cc(C(=O)N2CCc3ccc(OCc4ccc(O)cn4)cc3C2)ccc1=O                  2.52
1  COCCn1cc(C(=O)N2CCc3ncc(OCc4ccc(OC)cn4)cc3C2)ccc1=O                  1.63
2  COc1ccc(COc2cc3c(cn2)CCN(C(=O)c2ccc(OC)nc2)C3)nc1                  1.60
3          COc1ccc(NC(=O)N2CCc3ccccc3C2)cn1                  3.00
4  COc1ccc(C(=O)N(C)c2ccc3c(c2)CN(c2ccc(OC)nc2)CC3)nc1                  2.52
5  COc1ccc(COc2ccc3c(c2)CCN(C(=O)c2ccc(OC)nc2)C3)nc1                  0.93
6  COc1ccc(COc2ccc3c(c2)CN(C(=O)c2cncc(OC)c2)CC3)nc1                  0.75
7  COc1ccc(C(=O)N2CCc3ccc(OCc4ccc(OCCF)cn4)cc3C2)cn1                  0.10

## Input // returns reported log10 of EC50 for input COc1ccc(COc2ccc3c(c2)CN(C(=O)Nc2ccc(OC)nc2)CC3)nc1
## Output 0.84

## Input Further, for COc1ccc(COc2ccc3c(c2)CN(C(=O)N2CCN(C)CC2)CC3)nc1 ?
## Output 1.86

## Input Further, for COc1ccc(COc2ccc3c(c2)CN(C(=O)c2ccc(=O)n(CCF)n2)CC3)nc1 ?
## Output 0.63

## Input Further, for COc1ccc(COc2ccc3c(c2)CN(C(=O)c2ccc(=O)n(CCCF)c2)CC3)nc1 ?
## Output 0.74

## Input Further, for COc1ccc(COc2ccc3c(c2)CN(C(=O)OCC(C)C)CC3)nc1 ?
## Output 1.56

## Input Further, for COc1ccc(COc2ccc3c(c2)CN(c2ccc(OC)cn2)CC3)nc1 ?
## Output 0.25

## Input Further, for COc1ccc(COc2cnc3c(c2)CN(c2ncc(OC)cn2)CC3)nc1 ?
## Output 0.29

## Input Further, for COc1ccc(C(=O)Nc2ccc3c(c2)CN(C(=O)c2ccc(OC)nc2)CC3)nc1 ?
## Output 0.24

## Input Further, for COc1ccc(COc2ccc3c(c2)CN(C(=O)c2ccc(N(C)C)nc2)CC3)nc1 ?
## Output 0.26

## Input Further, for COc1ccc(COc2ccc3c(c2)CN(C(=O)c2cnn(C)c2)CC3)nc1 ?
## Output 0.90

====

molecular target: aggregated MBP-HTT(1-89)Q46-His(6×) (Exonl-Q46) protein (Q46 protein aggregates) (Homo sapiens (Human), UniProt P42858, INS38QQQQQQQQQQQQQQQQQQQQQQQQQ); assay: Q46 Radioligand Binding Assay; settings: same radioligand displacement on Exonl-Q46 aggregates; read-out: Q46_RBA EC50_
EC50 for assorted compounds

>>> print(df.to_string())
                         compound_structure    result
0  COc1ccc(COc2ccc3c(c2)C(=O)N(Cc2ccc(OC)nc2)CC3)nc1  < 100 nM
1  COc1ccc(C(=O)N2CCc3ccc(OCc4ccc(O)cn4)cc3C2)cn1  < 100 nM
2  COc1ccc(COc2ccc3c(c2)CN(C(=O)N2CCN(C)CC2)CC3)nc1  < 100 nM
3  COc1ccc(COc2cnc3c(c2)CN(c2ccc(OC)cn2)CC3)nc1  < 100 nM
4  COc1ccc(OCCn2cnc3c2CN(C(=O)c2ccc(OC)nc2)CC3)nc1  > 500 nM

Now take the following compound into account.
## Input // returns reported EC50 for input COc1ccc(COc2ccc3c(c2)CN(C(=O)c2ccc(OC)nc2)CCO3)nc1
## Output 100 to 500 nM

====

target: aggregated MBP-HTT(1-89)Q46-His(6×) (Exonl-Q46) protein (Q46 protein aggregates) (Homo sapiens (Human), UniProt P42858, INS38QQQQQQQQQQQQQQQQQQQQQQQQQ); assay: Q46 Radioligand Binding Assay; conditions: displacement of 0.3 nM [3H3-methyl]-5-((5-methoxypyridin-2-yl)methoxy)-2-(pyrazin-2-yl)benzo[d]oxazole from 1 μM Exonl-Q46 aggregates; method calls the values IC50; read-out: Q46_RBA EC50_
EC50 for assorted molecules
Just the number please, in nM, no unit attached.

Examples with answers:
In [3]: df
Out[3]:
                                   molecule  measurement_type  unit_annotation  quantitative_readout
0  COc1ccc(C(=O)N2CCc3ccc(OCc4ccc(O)cn4)cc3C2)cn1              EC50               nM                  8.44
1  COc1ccc(COc2ccc3c(c2)CN(c2ccc(=O)n(C)n2)CC3)nc1              EC50               nM                  13.4
2  COc1ccc(OCCOc2ccc3c(c2)CN(C(=O)c2ccc(OC)nc2)CC3)nc1              EC50               nM                  37.4
3  COc1ccc(COc2ccc3c(c2)CN(c2cc(OC)ccn2)CC3)nc1              EC50               nM                   1.7
4  COc1ccc(COc2ccc3c(c2)CN(C(=O)C2CCN(C)CC2)CC3)nc1              EC50               nM                   951
5  COc1ccc(COc2ccc3c(c2)CN(C(=O)c2ccc(C(F)(F)F)nc2)CC3)nc1              EC50               nM                  2.54
6  COc1ccc(COc2ccc3c(c2)CN(c2ncc(OC)cn2)CC3)nc1              EC50               nM                  1.26
7  COc1ccc(COc2ccc3c(c2)CN(c2cnn(C)c2)CC3)nc1              EC50               nM                   161
8  COc1ccc(COc2cccc3c2CCN(C(=O)c2ccc(OC)nc2)C3)nc1              EC50               nM                  34.1
9  COc1ccc(COc2ccc3c(c2)CN(C(=O)c2cnc(OC)cn2)CC3)nc1              EC50               nM                   1.2

## Input // returns reported EC50 for input COc1ccc(C(=O)Nc2ccc3c(c2)CN(c2ccc(OC)nc2)CC3)nc1
## Output 1.3

## Input Further, for COc1ccc(COc2ccc3c(c2)CN(C(=O)c2ccc(=O)n(C)n2)CC3)nc1 ?
## Output 7.75

## Input Further, for COc1ccc(COc2ccc3c(c2)CCN(C(=O)c2ccc(=O)n(C)n2)C3)nc1 ?
## Output 46.4

## Input Further, for COc1ccc2c(c1)CN(C(=O)c1ccc(OC)nc1)CC2 ?
## Output 333

## Input Further, for COc1ccc(COc2cnc3c(c2)CN(C(=O)c2cncc(OCCF)c2)CC3)nc1 ?
## Output 65

## Input Further, for COc1ccc(COc2cnc3c(c2)CN(C(=O)c2ccnc(OCCF)c2)CC3)nc1 ?
## Output 23

## Input Further, for COc1ccc(COc2cnc3c(c2)CN(C(=O)c2ccc(-n4ccnc4)nc2)CC3)nc1 ?
## Output 2.06

## Input Further, for COc1ccc(COc2cnc3c(c2)CN(C(=O)c2cncc(OC)c2)CC3)nc1 ?
## Output 29.4
